# EXPERIMENTAL_DETAILS: Cytotoxicity, cell viability by ATPLite Kit
# Format: cell-based, human
# CONDITION_LABEL: human, Huh7 cells (human hepatoma cell line), 10% FBS, maximal inhibition, read-out: Cytotox gT1b 10% FBS max. inh.
Where a name gives a salt, the structure may show the parent alone.
MET means recorded inhibition at 96 h is 40% or above; NOT MET means it is below 40%.

molecule="COC(=O)N[C@H](C(=O)N1CCC[C@H]1c1ncc(C#CC#Cc2ccc(-c3cnc([C@@H]4CCCN4C(=O)[C@@H](NC(=O)OC)C(C)C)[nH]3)cc2-c2ccccc2)[nH]1)C(C)C [2(1)•2HCl, dihydrochloride]" group=MET
molecule="COC(=O)N[C@H](C(=O)N1CCC[C@H]1c1ncc(-c2cc(F)c(C#CC#Cc3cnc([C@@H]4CCCN4C(=O)[C@H](NC(=O)OC)c4ccccc4)[nH]3)c(-c3ccccc3)c2)[nH]1)C(C)C [2(17)•2HCl, dihydrochloride]" group="NOT MET"
molecule="COC(=O)N[C@H](C(=O)N1CCC[C@H]1c1ncc(-c2cc(C)c(-c3ccc(-c4cnc([C@@H]5CCCN5C(=O)[C@H](NC(=O)OC)c5ccccc5)[nH]4)cc3)c(-c3ccccc3)c2)[nH]1)C(C)C [2(27)•2HCl, dihydrochloride]" group="NOT MET"
molecule="COC(=O)N[C@H](C(=O)N1CCC[C@H]1c1ncc(-c2ccc(C#CC#Cc3cnc([C@@H]4CCCN4C(=O)[C@H](NC(=O)OC)c4ccccc4)[nH]3)c(N(C)c3ccccc3)c2)[nH]1)C(C)C [2(21)•2HCl, trihydrochloride]" group="NOT MET"

We now examine a further molecule.
Task: API: above_or_equal(metric=inhibition at 96 h, cutoff=40%) for item COC(=O)N[C@H](C(=O)N1CCC[C@H]1c1ncc(-c2ccc(C#CC#Cc3cnc([C@@H]4CCCN4C(=O)[C@H](NC(=O)OC)c4ccccc4)[nH]3)c(Sc3ccccc3)c2)[nH]1)C(C)C [2(20)•2HCl, dihydrochloride]
Result: MET

----------
# Tested on: HCV gT3a replicon
# EXPERIMENTAL_DETAILS: HCV replicon assay, gT3a
# Type: cell-based, Hepatitis C virus (HCV)
# CONDITION_LABEL: Hepatitis C virus, GT3A, Huh-7, Huh7 replicon cells; mean; read-out: gT3a, EC50 (pM) mean
Where a name gives a salt, the structure may show the parent alone.
Hi! Could you tag entries with EC50 below 20 pM as TRUE, and those at or above as FALSE? Much appreciated.

molecule="COC(=O)N[C@H](C(=O)N1CCC[C@H]1c1ncc(-c2cc(C)c(C#CC#Cc3cnc([C@@H]4CCCN4C(=O)[C@H](NC(=O)OC)c4ccccc4)[nH]3)c(-c3ccccc3)c2)[nH]1)C(C)C [2(18)•2HCl, dihydrochloride]" group=FALSE
molecule="COC(=O)N[C@H](C(=O)N1CCC[C@H]1c1ncc(-c2ccc(-c3ccc(-c4cnc([C@@H]5CCCN5C(=O)[C@H](NC(=O)OC)c5ccccc5)[nH]4)cc3)c(Oc3ccccc3)c2)[nH]1)C(C)C [2(23)•2HCl, dihydrochloride]" group=TRUE
molecule="COC(=O)N[C@H](C(=O)N1CCC[C@H]1c1ncc(-c2cc(C)c(-c3ccc(-c4cnc([C@@H]5CCCN5C(=O)[C@H](NC(=O)OC)c5ccccc5)[nH]4)cc3)c(-c3ccccc3)c2)[nH]1)C(C)C [2(27)•2HCl, dihydrochloride]" group=FALSE
molecule="COC(=O)N[C@H](C(=O)N1CCC[C@H]1c1ncc(-c2ccc(-c3ccc(-c4cnc([C@@H]5CCCN5C(=O)[C@H](NC(=O)OC)c5ccccc5)[nH]4)cc3)c(Sc3ccccc3)c2)[nH]1)C(C)C [2(24)•2HCl, dihydrochloride]" group=FALSE
molecule="COC(=O)N[C@H](C(=O)N1CCC[C@H]1c1ncc(-c2ccc(-c3ccc(-c4cnc([C@@H]5CCCN5C(=O)[C@H](NC(=O)OC)c5ccccc5)[nH]4)cc3)c(-c3ccccc3)c2)[nH]1)C(C)C [2(22)•2HCl, dihydrochloride]" group=TRUE
molecule="COC(=O)N[C@H](C(=O)N1CCC[C@H]1c1ncc(-c2ccc(C#CC#Cc3cnc([C@@H]4CCCN4C(=O)[C@H](NC(=O)OC)c4ccccc4)[nH]3)c(N(C)c3ccccc3)c2)[nH]1)C(C)C [2(21)•2HCl, trihydrochloride]" group=FALSE
molecule="COC(=O)N[C@H](C(=O)N1CCC[C@H]1c1ncc(-c2ccc(C#CC#Cc3cnc([C@@H]4CCCN4C(=O)[C@H](NC(=O)OC)c4ccccc4)[nH]3)c(-c3ccccc3)c2)[nH]1)C(C)C.Cl.Cl [2(7)•2HCl, dihydrochloride]" group=FALSE

We now examine a further molecule.
Task: Lab note: confirm whether the reported EC50 for this molecule is below 20 pM, equality not counting. molecule: COC(=O)N[C@H](C(=O)N1CCC[C@H]1c1ncc(-c2ccc(-c3ccc(-c4cnc([C@@H]5CCCN5C(=O)[C@H](NC(=O)OC)c5ccccc5)[nH]4)cc3)c(N(C)c3ccccc3)c2)[nH]1)C(C)C [2(25)•2HCl, trihydrochloride]
Result: FALSE

----------
# Test system: HCV gT1b replicon
# EXPERIMENTAL_DETAILS: HCV replicon assay, gT1b
# Type: cell-based, Hepatitis C virus (HCV)
# CONDITION_LABEL: Hepatitis C virus, GT1B, Huh-7; 40% NHS; Huh7 replicon cells; mean value; read-out: gT1b 40% NHS, EC50 (pM) mean
Counter-ions that a name gives are not always drawn.
Form field: EC50 (one value per entry).
# value in pM; strip the unit string

Consider the worked cases shown below.
compound="COC(=O)N[C@H](C(=O)N1CCC[C@H]1c1ncc(-c2ccc(-c3ccc(-c4cnc([C@@H]5CCCN5C(=O)[C@H](NC(=O)OC)c5ccccc5)[nH]4)cc3)c(Oc3ccccc3)c2)[nH]1)C(C)C [2(23)•2HCl, dihydrochloride]" test_value=15.7
compound="COC(=O)N[C@H](C(=O)N1CCC[C@H]1c1ncc(-c2ccc(C#CC#Cc3cnc([C@@H]4CCCN4C(=O)[C@H](NC(=O)OC)c4ccccc4)[nH]3)c(Oc3ccccc3)c2)[nH]1)C(C)C [2(19)•2HCl, dihydrochloride]" test_value=8.41
compound="COC(=O)N[C@H](C(=O)N1CCC[C@H]1c1ncc(-c2cc(F)c(C#CC#Cc3cnc([C@@H]4CCCN4C(=O)[C@H](NC(=O)OC)c4ccccc4)[nH]3)c(-c3ccccc3)c2)[nH]1)C(C)C [2(17)•2HCl, dihydrochloride]" test_value=9.18

// next item, EC50 requested
Task: Supply recorded EC50 for COC(=O)N[C@H](C(=O)N1CCC[C@H]1c1ncc(C#CC#Cc2ccc(-c3cnc([C@@H]4CCCN4C(=O)[C@@H](NC(=O)OC)C(C)C)[nH]3)cc2-c2ccccc2)[nH]1)C(C)C [2(1)•2HCl, dihydrochloride] here.
Result: 12.4

----------
Form field: EC50 (one value per entry).
# Test system: HCV gT1b replicon
# EXPERIMENTAL_DETAILS: HCV replicon assay, gT1b
# Assay type: cell-based, Hepatitis C virus (HCV)
# CONDITION_LABEL: Hepatitis C virus, GT1B, Huh-7; 40% NHS; Huh7 replicon cells; mean value; read-out: gT1b 40% NHS, EC50 (pM) mean
Where a name gives a salt, the structure may show the parent alone.
# value in pM; strip the unit string

Consider the worked cases shown below.
molecule="COC(=O)N[C@H](C(=O)N1CCC[C@H]1c1ncc(-c2cc(C)c(C#CC#Cc3cnc([C@@H]4CCCN4C(=O)[C@H](NC(=O)OC)c4ccccc4)[nH]3)c(-c3ccccc3)c2)[nH]1)C(C)C [2(18)•2HCl, dihydrochloride]" target_or_test_system="HCV gT1b replicon" test_value=10.9
molecule="COC(=O)N[C@H](C(=O)N1CCC[C@H]1c1ncc(-c2ccc(-c3ccc(-c4cnc([C@@H]5CCCN5C(=O)[C@H](NC(=O)OC)c5ccccc5)[nH]4)cc3)c(N(C)c3ccccc3)c2)[nH]1)C(C)C [2(25)•2HCl, trihydrochloride]" target_or_test_system="HCV gT1b replicon" test_value=11.5
molecule="COC(=O)N[C@H](C(=O)N1CCC[C@H]1c1ncc(-c2ccc(C#CC#Cc3cnc([C@@H]4CCCN4C(=O)[C@H](NC(=O)OC)c4ccccc4)[nH]3)c(-c3ccc(-c4ccccc4)cc3)c2)[nH]1)C(C)C [2(13)•2HCl, dihydrochloride]" target_or_test_system="HCV gT1b replicon" test_value=14.4
molecule="COC(=O)N[C@H](C(=O)N1CCC[C@H]1c1ncc(-c2ccc(C#CC#Cc3cnc([C@@H]4CCCN4C(=O)[C@H](NC(=O)OC)c4ccccc4)[nH]3)c(-c3ccc(N4CCN(C)CC4)cc3)c2)[nH]1)C(C)C [2(15)•2HCl]" target_or_test_system="HCV gT1b replicon" test_value=23.9
molecule="COC(=O)N[C@H](C(=O)N1CCC[C@H]1c1ncc(-c2ccc(C#CC#Cc3cnc([C@@H]4CCCN4C(=O)[C@H](NC(=O)OC)c4ccccc4)[nH]3)c(Sc3ccccc3)c2)[nH]1)C(C)C [2(20)•2HCl, dihydrochloride]" target_or_test_system="HCV gT1b replicon" test_value=9.02

Task: Supply recorded EC50 for COC(=O)N[C@H](C(=O)N1CCC[C@H]1c1ncc(-c2cc(F)c(-c3ccc(-c4cnc([C@@H]5CCCN5C(=O)[C@H](NC(=O)OC)c5ccccc5)[nH]4)cc3)c(-c3ccccc3)c2)[nH]1)C(C)C [2(26)•2HCl, dihydrochloride] here.
Result: 14.5

Task: Supply recorded EC50 for COC(=O)N[C@H](C(=O)N1CCC[C@H]1c1ncc(-c2ccc(C#CC#Cc3cnc([C@@H]4CCCN4C(=O)[C@H](NC(=O)OC)c4ccccc4)[nH]3)c(-c3ccccc3)c2)[nH]1)C(C)C.Cl.Cl [2(7)•2HCl, dihydrochloride] here.
Result: 12.6

Task: Supply recorded EC50 for COC(=O)N[C@H](C(=O)N1CCC[C@H]1c1ncc(-c2ccc(C#CC#Cc3cnc([C@@H]4CCCN4C(=O)[C@H](NC(=O)OC)c4ccccc4)[nH]3)c(-c3cccc(-c4ccccc4)c3)c2)[nH]1)C(C)C [2(12)•2HCl, dihydrochloride] here.
Result: 13.4

// provenance: patent US9790207B2
